target: hMC4-R (human) (UniProt P32245); assay: competition with 0.4 nM 125I-NDP-alpha-MSH on hMC4-R membranes, metallopeptide at 1 µM
Sequence (P32245 whole entry): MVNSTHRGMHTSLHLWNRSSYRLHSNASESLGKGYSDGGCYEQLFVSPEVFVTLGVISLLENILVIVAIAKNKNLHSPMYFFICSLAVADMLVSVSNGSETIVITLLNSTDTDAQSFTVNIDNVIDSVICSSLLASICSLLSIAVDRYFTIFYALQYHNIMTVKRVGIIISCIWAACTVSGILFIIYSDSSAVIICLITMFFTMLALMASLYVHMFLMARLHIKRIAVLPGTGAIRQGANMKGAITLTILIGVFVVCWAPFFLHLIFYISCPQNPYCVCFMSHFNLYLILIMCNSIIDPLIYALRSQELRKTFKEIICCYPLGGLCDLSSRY
Square brackets hold non-standard residues; d marks the D form. Nle = CCCC[C@H](N)C(=O)O
PROPERTY NAME: % Inhibition at 1 µM (%)

Ac-[Nle]AH[dF]RWC-NH2 (bridge (positions not given here) via ReOCl3(PPh3)2; also: oxorhenium(V) metal complex) [Re-complexed Ac-Nle-Ala-His-D-Phe-Arg-Trp-Cys-NH2] : 98
Ac-[Nle]ACH[dF]RW-NH2 (bridge (positions not given here) via ReOCl3(PPh3)2; also: oxorhenium(V) N3S1 metal chelate (X-X-Cys)) [Re-complexed Ac-Nle-Ala-Cys-His-D-Phe-Arg-Trp-NH2] : 71
Ac-[Nle]AH[dF]CRW-NH2 (bridge (positions not given here) via ReOCl3(PPh3)2; also: oxorhenium(V) metal complex) [Re-complexed Ac-Nle-Ala-His-D-Phe-Cys-Arg-Trp-NH2] : 66
Ac-[Nle]AHC[dF]RW-NH2 (bridge (positions not given here) via ReOCl3(PPh3)2; also: oxorhenium(V) metal complex) [Re-complexed Ac-Nle-Ala-His-Cys-D-Phe-Arg-Trp-NH2] : 75

Cited source: patent EP1379283B1
